Experiment: Plasma pharmacokinetics of lestaurtinib
Conditions: human, po, 62.5 mg/m2
measured.property: Tmax

smiles | measured.property | reported.result
C[C@]12O[C@H](C[C@]1(O)CO)n1c3ccccc3c3c4c(c5c6ccccc6n2c5c31)CNC4=O | Tmax | 1 h

###

Assay: clinical
Conditions: human, in vivo, po, 70 mg/m2
measured.property: Tmax (h)

smiles | reported.result
C[C@]12O[C@H](C[C@]1(O)CO)n1c3ccccc3c3c4c(c5c6ccccc6n2c5c31)CNC4=O | 1

###

Experiment: clinical
Details: human, in vivo, po, 62.5 mg/m2

compound | half-life, h
C[C@]12O[C@H](C[C@]1(O)CO)n1c3ccccc3c3c4c(c5c6ccccc6n2c5c31)CNC4=O [lestaurtinib, Lestaurtinib] | 4.3

###

Assay: clinical
Details: human, in vivo, po, 25 mg/m2

compound | half-life / h
C[C@]12O[C@H](C[C@]1(O)CO)n1c3ccccc3c3c4c(c5c6ccccc6n2c5c31)CNC4=O [lestaurtinib, Lestaurtinib] | 10.5

###

Assay: clinical
Conditions: human, in vivo, po, 77.5 mg/m2

smiles | AUC(0-inf) [ng·h/mL]
C[C@]12O[C@H](C[C@]1(O)CO)n1c3ccccc3c3c4c(c5c6ccccc6n2c5c31)CNC4=O | 54800

###

Assay: clinical
Conditions: human, in vivo, po, 55 mg/m2

compound | readout.units | half-life
C[C@]12O[C@H](C[C@]1(O)CO)n1c3ccccc3c3c4c(c5c6ccccc6n2c5c31)CNC4=O [lestaurtinib, Lestaurtinib] | h | 6

###

Test: Plasma pharmacokinetics of lestaurtinib
Settings: human, po, 85 mg/m2
measured.property: Cmax (ng/mL)

smiles | reported.result
C[C@]12O[C@H](C[C@]1(O)CO)n1c3ccccc3c3c4c(c5c6ccccc6n2c5c31)CNC4=O | 3460

###

Experiment: Plasma pharmacokinetics of lestaurtinib
Settings: human, po, 92.5 mg/m2
measured.property: Cmax

molecule | reported.result
C[C@]12O[C@H](C[C@]1(O)CO)n1c3ccccc3c3c4c(c5c6ccccc6n2c5c31)CNC4=O [lestaurtinib, Lestaurtinib] | 8740 ng/mL

###

Experiment: clinical
Details: human, in vivo, po, 120 mg/m2
measured.property: Cmax (ng/mL)

smiles | reported.result
C[C@]12O[C@H](C[C@]1(O)CO)n1c3ccccc3c3c4c(c5c6ccccc6n2c5c31)CNC4=O | 3510

###

Test: Plasma pharmacokinetics of lestaurtinib
Details: human, po, 25 mg/m2

smiles | Cmax / ng/mL
C[C@]12O[C@H](C[C@]1(O)CO)n1c3ccccc3c3c4c(c5c6ccccc6n2c5c31)CNC4=O | 2400

###

Experiment: Plasma pharmacokinetics of lestaurtinib
Settings: human, po, 55 mg/m2
measured.property: Cmax

smiles | measured.property | reported.result
C[C@]12O[C@H](C[C@]1(O)CO)n1c3ccccc3c3c4c(c5c6ccccc6n2c5c31)CNC4=O | Cmax | 4900 ng/mL

###

Assay: clinical
Conditions: human, in vivo, po, 35 mg/m2
measured.property: Cmax (ng/mL)

smiles | reported.result
C[C@]12O[C@H](C[C@]1(O)CO)n1c3ccccc3c3c4c(c5c6ccccc6n2c5c31)CNC4=O | 3390

###

Assay: Plasma pharmacokinetics of lestaurtinib
Conditions: human, po, 55 mg/m2

molecule | AUC(0-inf), ng·h/mL
C[C@]12O[C@H](C[C@]1(O)CO)n1c3ccccc3c3c4c(c5c6ccccc6n2c5c31)CNC4=O [lestaurtinib, Lestaurtinib] | 40800

###

Experiment: clinical
Details: human, in vivo, po, 77.5 mg/m2
measured.property: AUC(0-t) (ng·h/mL)

smiles | reported.result
C[C@]12O[C@H](C[C@]1(O)CO)n1c3ccccc3c3c4c(c5c6ccccc6n2c5c31)CNC4=O | 47500

###

Assay: clinical
Conditions: human, in vivo, po, 25 mg/m2
measured.property: AUC(0-t) (ng·h/mL)

compound | reported.result
C[C@]12O[C@H](C[C@]1(O)CO)n1c3ccccc3c3c4c(c5c6ccccc6n2c5c31)CNC4=O [lestaurtinib, Lestaurtinib] | 29500

###

Test: Plasma pharmacokinetics of lestaurtinib
Conditions: human, po, 45 mg/m2

compound | AUC(0-inf) [ng·h/mL]
C[C@]12O[C@H](C[C@]1(O)CO)n1c3ccccc3c3c4c(c5c6ccccc6n2c5c31)CNC4=O [lestaurtinib, Lestaurtinib] | 16400

###

Assay: clinical
Conditions: human, in vivo, po, 45 mg/m2
measured.property: Cmax

molecule | reported.result
C[C@]12O[C@H](C[C@]1(O)CO)n1c3ccccc3c3c4c(c5c6ccccc6n2c5c31)CNC4=O [lestaurtinib, Lestaurtinib] | 3060 ng/mL

###

Assay: clinical
Conditions: human, in vivo, po, 35 mg/m2
measured.property: half-life

molecule | reported.result
C[C@]12O[C@H](C[C@]1(O)CO)n1c3ccccc3c3c4c(c5c6ccccc6n2c5c31)CNC4=O [lestaurtinib, Lestaurtinib] | 7 h

###

Test: clinical
Settings: human, in vivo, po, 45 mg/m2

smiles | half-life
C[C@]12O[C@H](C[C@]1(O)CO)n1c3ccccc3c3c4c(c5c6ccccc6n2c5c31)CNC4=O | 4.5 h

###

Assay: clinical
Conditions: human, in vivo, po, 55 mg/m2
measured.property: Tmax (h)

molecule | reported.result
C[C@]12O[C@H](C[C@]1(O)CO)n1c3ccccc3c3c4c(c5c6ccccc6n2c5c31)CNC4=O [lestaurtinib, Lestaurtinib] | 1

Cited source: paper PMC4238911
